Tested on: LNCaP tumor-bearing male CB-17 SCID mice
Experiment: Biodistribution 1 h p.i. with competition (co-injection of 2-PMPA)
Assay type: in vivo
Conditions: co-injected with 2-PMPA (8 mg/kg), n = 3
Can you tell me Biodistribution Tumor for the items I'm about to list?
Numbers only, in % ID/g.

Use these answered entries as a reference point.
compound: CC(C)(C)[Si]([18F])(c1ccc(C(=O)NC[C@H](NC(=O)CC[C@@H](C(=O)O)N2CCN(CC(=O)[O-])CCN(CC(=O)[O-])CCN(CC(=O)[O-])CC2)C(=O)N[C@H](CCCCNC(=O)CCC(=O)NCCC[C@@H](NC(=O)CC[C@H](NC(=O)N[C@@H](CCC(=O)O)C(=O)O)C(=O)O)C(=O)O)C(=O)O)cc1)C(C)(C)C.[Ga+3] [[^18F, ^natGa]rhPSMA-7.4]
observedMeasurement: 0.99

compound: CC(C)(C)[Si]([18F])(c1ccc(C(=O)NC[C@@H](NC(=O)CC[C@@H](C(=O)O)N2CCN(CC(=O)[O-])CCN(CC(=O)[O-])CCN(CC(=O)[O-])CC2)C(=O)N[C@H](CCCCNC(=O)CCC(=O)NCCC[C@@H](NC(=O)CC[C@H](NC(=O)N[C@@H](CCC(=O)O)C(=O)O)C(=O)O)C(=O)O)C(=O)O)cc1)C(C)(C)C.[Ga+3] [[^18F, ^natGa]rhPSMA-7.3]
observedMeasurement: 1.5

Kindly give each listed record's Biodistribution Tumor.
1. CC(C)(C)[Si]([18F])(c1ccc(C(=O)NC[C@H](NC(=O)CC[C@H](C(=O)O)N2CCN(CC(=O)[O-])CCN(CC(=O)[O-])CCN(CC(=O)[O-])CC2)C(=O)N[C@H](CCCCNC(=O)CCC(=O)NCCC[C@@H](NC(=O)CC[C@H](NC(=O)N[C@@H](CCC(=O)O)C(=O)O)C(=O)O)C(=O)O)C(=O)O)cc1)C(C)(C)C.[Ga+3] [[^18F, ^natGa]rhPSMA-7.2]
2. CC(C)(C)[Si]([18F])(c1ccc(C(=O)NC[C@@H](NC(=O)CC[C@H](C(=O)O)N2CCN(CC(=O)[O-])CCN(CC(=O)[O-])CCN(CC(=O)[O-])CC2)C(=O)N[C@H](CCCCNC(=O)CCC(=O)NCCC[C@@H](NC(=O)CC[C@H](NC(=O)N[C@@H](CCC(=O)O)C(=O)O)C(=O)O)C(=O)O)C(=O)O)cc1)C(C)(C)C.[Ga+3] [[^18F, ^natGa]rhPSMA-7.1]

1: 1.0; 2: 0.94

###

System: LNCaP tumor-bearing male CB-17 SCID mice
Assay: Biodistribution 1 h p.i.
Assay type: in vivo
Consider the following molecules; for each one, report its Biodistribution Heart.
Answers are plain numbers, in % ID/g.

For orientation, consider the following solved cases.
molecule: CC(C)(C)[Si]([18F])(c1ccc(C(=O)NC[C@@H](NC(=O)CC[C@H](C(=O)O)N2CCN(CC(=O)[O-])CCN(CC(=O)[O-])CCN(CC(=O)[O-])CC2)C(=O)N[C@H](CCCCNC(=O)CCC(=O)NCCC[C@@H](NC(=O)CC[C@H](NC(=O)N[C@@H](CCC(=O)O)C(=O)O)C(=O)O)C(=O)O)C(=O)O)cc1)C(C)(C)C.[Ga+3] [[^18F, ^natGa]rhPSMA-7.1]
Biodistribution Heart / % ID/g: 0.53
//
molecule: CC(C)(C)[Si]([18F])(c1ccc(C(=O)NC[C@@H](NC(=O)CC[C@@H](C(=O)O)N2CCN(CC(=O)[O-])CCN(CC(=O)[O-])CCN(CC(=O)[O-])CC2)C(=O)N[C@H](CCCCNC(=O)CCC(=O)NCCC[C@@H](NC(=O)CC[C@H](NC(=O)N[C@@H](CCC(=O)O)C(=O)O)C(=O)O)C(=O)O)C(=O)O)cc1)C(C)(C)C.[Ga+3] [[^18F, ^natGa]rhPSMA-7.3]
Biodistribution Heart / % ID/g: 0.87
//
molecule: CC(C)(C)[Si]([18F])(c1ccc(C(=O)NC[C@H](NC(=O)CC[C@H](C(=O)O)N2CCN(CC(=O)[O-])CCN(CC(=O)[O-])CCN(CC(=O)[O-])CC2)C(=O)N[C@H](CCCCNC(=O)CCC(=O)NCCC[C@@H](NC(=O)CC[C@H](NC(=O)N[C@@H](CCC(=O)O)C(=O)O)C(=O)O)C(=O)O)C(=O)O)cc1)C(C)(C)C.[Ga+3] [[^18F, ^natGa]rhPSMA-7.2]
Biodistribution Heart / % ID/g: 0.32

Notebook: CC(C)(C)[Si]([18F])(c1ccc(C(=O)NC[C@H](NC(=O)CC[C@@H](C(=O)O)N2CCN(CC(=O)[O-])CCN(CC(=O)[O-])CCN(CC(=O)[O-])CC2)C(=O)N[C@H](CCCCNC(=O)CCC(=O)NCCC[C@@H](NC(=O)CC[C@H](NC(=O)N[C@@H](CCC(=O)O)C(=O)O)C(=O)O)C(=O)O)C(=O)O)cc1)C(C)(C)C.[Ga+3] [[^18F, ^natGa]rhPSMA-7.4] , Biodistribution Heart read as 0.71

###

Test system: LNCaP tumor-bearing male CB-17 SCID mice
Assay: Biodistribution 1 h p.i. with competition (co-injection of 2-PMPA)
Assay type: in vivo
Settings: co-injected with 2-PMPA (8 mg/kg), n = 3
Could you please report measured Biodistribution Spleen for the items listed next?
One number for each entry, in % ID/g.

As a guide, the following entries are already answered.
compound: CC(C)(C)[Si]([18F])(c1ccc(C(=O)NC[C@H](NC(=O)CC[C@H](C(=O)O)N2CCN(CC(=O)[O-])CCN(CC(=O)[O-])CCN(CC(=O)[O-])CC2)C(=O)N[C@H](CCCCNC(=O)CCC(=O)NCCC[C@@H](NC(=O)CC[C@H](NC(=O)N[C@@H](CCC(=O)O)C(=O)O)C(=O)O)C(=O)O)C(=O)O)cc1)C(C)(C)C.[Ga+3] [[^18F, ^natGa]rhPSMA-7.2]
Biodistribution Spleen / % ID/g: 0.26

compound: CC(C)(C)[Si]([18F])(c1ccc(C(=O)NC[C@H](NC(=O)CC[C@@H](C(=O)O)N2CCN(CC(=O)[O-])CCN(CC(=O)[O-])CCN(CC(=O)[O-])CC2)C(=O)N[C@H](CCCCNC(=O)CCC(=O)NCCC[C@@H](NC(=O)CC[C@H](NC(=O)N[C@@H](CCC(=O)O)C(=O)O)C(=O)O)C(=O)O)C(=O)O)cc1)C(C)(C)C.[Ga+3] [[^18F, ^natGa]rhPSMA-7.4]
Biodistribution Spleen / % ID/g: 0.28

compound: CC(C)(C)[Si]([18F])(c1ccc(C(=O)NC[C@@H](NC(=O)CC[C@H](C(=O)O)N2CCN(CC(=O)[O-])CCN(CC(=O)[O-])CCN(CC(=O)[O-])CC2)C(=O)N[C@H](CCCCNC(=O)CCC(=O)NCCC[C@@H](NC(=O)CC[C@H](NC(=O)N[C@@H](CCC(=O)O)C(=O)O)C(=O)O)C(=O)O)C(=O)O)cc1)C(C)(C)C.[Ga+3] [[^18F, ^natGa]rhPSMA-7.1]
Biodistribution Spleen / % ID/g: 0.21

Next compound, Biodistribution Spleen to be filled in.
Recorded result, CC(C)(C)[Si]([18F])(c1ccc(C(=O)NC[C@@H](NC(=O)CC[C@@H](C(=O)O)N2CCN(CC(=O)[O-])CCN(CC(=O)[O-])CCN(CC(=O)[O-])CC2)C(=O)N[C@H](CCCCNC(=O)CCC(=O)NCCC[C@@H](NC(=O)CC[C@H](NC(=O)N[C@@H](CCC(=O)O)C(=O)O)C(=O)O)C(=O)O)C(=O)O)cc1)C(C)(C)C.[Ga+3] [[^18F, ^natGa]rhPSMA-7.3] , Biodistribution Spleen: 0.35

###

Tested on: LNCaP tumor-bearing male CB-17 SCID mice
Experiment: Biodistribution 1 h p.i. with competition (co-injection of 2-PMPA)
Type: in vivo
Conditions: co-injected with 2-PMPA (8 mg/kg), n = 3
parameter: Biodistribution Intestine (% ID/g)
Give bare numbers, in % ID/g.

Look over these answered cases.
compound: CC(C)(C)[Si]([18F])(c1ccc(C(=O)NC[C@H](NC(=O)CC[C@H](C(=O)O)N2CCN(CC(=O)[O-])CCN(CC(=O)[O-])CCN(CC(=O)[O-])CC2)C(=O)N[C@H](CCCCNC(=O)CCC(=O)NCCC[C@@H](NC(=O)CC[C@H](NC(=O)N[C@@H](CCC(=O)O)C(=O)O)C(=O)O)C(=O)O)C(=O)O)cc1)C(C)(C)C.[Ga+3] [[^18F, ^natGa]rhPSMA-7.2]
unit: % ID/g
observedMeasurement: 0.33
//
compound: CC(C)(C)[Si]([18F])(c1ccc(C(=O)NC[C@@H](NC(=O)CC[C@H](C(=O)O)N2CCN(CC(=O)[O-])CCN(CC(=O)[O-])CCN(CC(=O)[O-])CC2)C(=O)N[C@H](CCCCNC(=O)CCC(=O)NCCC[C@@H](NC(=O)CC[C@H](NC(=O)N[C@@H](CCC(=O)O)C(=O)O)C(=O)O)C(=O)O)C(=O)O)cc1)C(C)(C)C.[Ga+3] [[^18F, ^natGa]rhPSMA-7.1]
unit: % ID/g
observedMeasurement: 0.66
//
compound: CC(C)(C)[Si]([18F])(c1ccc(C(=O)NC[C@@H](NC(=O)CC[C@@H](C(=O)O)N2CCN(CC(=O)[O-])CCN(CC(=O)[O-])CCN(CC(=O)[O-])CC2)C(=O)N[C@H](CCCCNC(=O)CCC(=O)NCCC[C@@H](NC(=O)CC[C@H](NC(=O)N[C@@H](CCC(=O)O)C(=O)O)C(=O)O)C(=O)O)C(=O)O)cc1)C(C)(C)C.[Ga+3] [[^18F, ^natGa]rhPSMA-7.3]
unit: % ID/g
observedMeasurement: 0.94

Read the next record carefully.
Form: compound = CC(C)(C)[Si]([18F])(c1ccc(C(=O)NC[C@H](NC(=O)CC[C@@H](C(=O)O)N2CCN(CC(=O)[O-])CCN(CC(=O)[O-])CCN(CC(=O)[O-])CC2)C(=O)N[C@H](CCCCNC(=O)CCC(=O)NCCC[C@@H](NC(=O)CC[C@H](NC(=O)N[C@@H](CCC(=O)O)C(=O)O)C(=O)O)C(=O)O)C(=O)O)cc1)C(C)(C)C.[Ga+3] [[^18F, ^natGa]rhPSMA-7.4] ; Biodistribution Intestine = 0.36

# credit: paper PMC7721954
